These measurements were taken from ChEMBL document CHEMBL1201862.

Test system: SK-MEL-5
Assay: NCI tumour cell line growth inhibition, 48 h
Calls of active or inactive are those of the source. Rule as the data show it: active = GI50 up to about 1.1 µM and inactive = higher.
Would you mind answering with one of these outcomes? yes (1) = active, no (0) = inactive

Would you please look over these solved cases?
CO/N=C(\C(=O)[N-]n1cn[n+](CC(=O)OC(C)(C)C)c1)c1csc(NC(c2ccccc2)(c2ccccc2)c2ccccc2)n1    no (0)
O=C1Nc2ccccc2/C1=C\c1c(Cl)[nH]c2ccccc12    yes (1)
CC1CC(c2ccccc2)Nc2nc3ccccc3n21 (configuration not stated)    no (0)

stdin: Outcome? Cc1cc(=O)n2c3c(c4c(cc13)c(CO)cc(=O)n4C)OC2
stdout: no (0)

stdin: Test call, this compound: COc1cccc(C=O)c1C(=O)c1cc(O)ccc1O
stdout: no (0)

stdin: Please share the test call associated with CC(=O)Oc1ccc2c(-c3ccccc3)c(Oc3ccc(Cl)cc3)c(=O)oc2c1 .
stdout: no (0)

stdin: Write down the call the test reported for this compound. Item: O=[N+]([O-])c1cccc2nc3ccccc3c(NCCNCCO)c12
stdout: yes (1)

stdin: Which result was noted for this compound in the test: CCOC(=O)[C@H]1Nc2ccccc2C2c3ccccc3CC21 (some centres not stated)
stdout: no (0)

stdin: Look up the recorded call for O=C1OC(CC(=O)c2ccc(Cl)cc2)C(Cl)=C1Cl (configuration not stated) in this test.
stdout: no (0)

stdin: Which result was noted for this compound in the test: NC(=S)N/N=C1\CCCC1C(O)(C(F)(F)Cl)C(F)(F)Cl (configuration not stated)
stdout: no (0)

stdin: Which outcome was assigned to CCNC(=O)c1c(O)nc2ccccc2c1O in this test?
stdout: no (0)
